# test details: ATG_Ets_CIS: Attagene CIS-FACTORIAL HepG2 Assay for human Erythroblast Transformation Specific (ETS) (AID 2282941)
# condition info: HepG2 ETS cis-reporter transcription, actives raise or lower the signal
Calls of active or inactive are those of the source. The calls were made as follows: active = hit-call score of the fitted dose curve at least 0.9, where 1 is the maximum; inactive = score below 0.9.
Pick one: 1 (active), -1 (inactive)

As a guide, the following entries are already answered.
molecule: CC1=CC[C@H](C(C)C)C=C1
group: -1
--
molecule: COCC(C)N (stereo not given)
group: -1
--
molecule: CC(C)(Oc1ccc(C2CC2(Cl)Cl)cc1)C(=O)O (stereo not given)
group: -1
--
molecule: Cn1c(=O)[nH]c2ncn(C)c2c1=O
group: -1
--
molecule: O=c1[nH]c(=O)c2[nH]c(=O)[nH]c2[nH]1
group: -1

Now examine the next entry.
Data request: Recorded test call requested for CC(=O)OCC(C)OC(C)=O (stereo not given)
Data returned: -1
